# assay-explanation: Agilent ZORBAX 300 SB-C18, 150 × 1 mm, 3.5 µm; A: water + 0.01% heptafluorobutyric acid; B: acetonitrile + 0.01% heptafluorobutyric acid; gradient (min/%B) 0/0 100/90
# condition-label: stereoisomer not certain
endpoint-label: LC retention time (min)

{"compound": "Cc1cc(C)c(-c2csc(N)n2)c(C)c1", "LC retention time, min": 8.82}
{"compound": "CCOC(=O)C(Cc1ccccc1)n1cccc1 (centres undefined)", "LC retention time, min": 15.9}
{"compound": "CCOC(N)=O", "LC retention time, min": 4.72}

(P) Nc1nc(N)c2nc(-c3ccccc3)c(N)nc2n1
(Q) CCCCCCCCCCCCCC(N)=O
(R) Cc1c(C(=O)O)[nH]c(=O)[nH]c1=O
(S) Cc1ncnc2nc[nH]c12
Q) Write the entries in order, lowest recorded LC retention time first. Rank the items, then write their labels in that order.
A) R, S, P, Q
(R: 1.56 min, S: 5.87 min, P: 8.71 min, Q: 19.7 min)

(a) CC(=O)N1CCc2[nH]c3ccccc3c2C1
(b) OCCCc1cn(-c2ccccc2)c2ccccc12
(c) CNc1ccccn1
Q) With regard to LC retention time, arrange the entries in ascending order, please. Order the labels as requested and list them.
A) c, a, b

(A) O=C(O)CCN1CCCc2ccccc21
(B) Cc1cccc(C(O)(C(=O)NN(C(=O)Nc2ccccc2)c2ccccc2)c2cccc(C)c2)c1
(C) NCCCc1ccccn1
(D) Nc1cc(=O)[nH]c(=S)[nH]1
(E) O=C1CCC(=O)N1c1ccc(S(=O)(=O)O)cc1
Q) Sequence the entries by LC retention time, beginning with the highest number. Field: ranking. Enter the labels in the order requested.
A) B, A, C, D, E
(B: 16.3 min, A: 11.3 min, C: 6.8 min, D: 2.25 min, E: 1.56 min)

(1) CN1CCN(C(=O)c2cc(C(C)(C)C)cc(C(C)(C)C)c2)CC1
(2) CNCc1cccc(C)c1
Q) I would appreciate it if you could say which entry, 1 or 2 , has the lower LC retention time value. Respond using the label that marks the chosen record.
A) 2
(2: 8.02 min, 1: 11.6 min)

(I) c1ccc(N=c2scc(-c3ccccc3)n2-c2ccccc2)cc1
(II) O=C1CCCN1c1ccc(O)cc1
(III) COc1ccc(Oc2ccc(-n3c(C)ccc3C)cc2)cc1
Q) Hey, can you sort those compounds up there by LC retention time, smallest first? Answer by naming the labels in the order asked.
A) II, I, III
(II: 7.71 min, I: 12.4 min, III: 18.9 min)

(a) Cc1ccc(C=CC(=O)c2ccccc2O)cc1
(b) O=Cc1ccc2cccnc2c1
Q) Task for the reader: decide whether a or b has the larger LC retention time. Please respond with the label that marks your chosen entry.
A) a

(I) S=C(NC1CCCCC1)NC1CCCCC1
(II) NC(=O)c1cnc2ccccc2n1
Q) Which shows the larger LC retention time value: I or II ? Reply briefly: the label of your chosen item.
A) I
(I: 14.9 min, II: 8.31 min)

(a) Cc1nccnc1C
(b) O=C(C=Cc1cccc(O)c1)c1ccccc1O
(c) CCc1cccc2ccn(Cc3ccccc3)c12
Q) # ascending order, key=LC retention time Output the labels ranked as instructed.
A) a, b, c
